# target.entity: T1, integrin αVβ3 (human, UniProt P06756 31-1048; P05106 27-788)
# T1 construct: mature; biotinylated in capture lift and capture ELISA; also on M21 melanoma cells in some assays; also called vitronectin receptor; αVβ3 receptor
# measurement.notes: ELISA titration of Fab on immobilized αVβ3
Kindly supply the reported fold enhanced binding over LM609 grafted antibody values for the records listed here.

For the binder LM609 grafted antibody variant T27 (Fab, V domains shown, Fab) VH: QVQLVESGGGVVQPGRSLRLSCAASGTTFSSYDMSWVRQAPGKGLEWVAKVSSGGGSTYYLDTVQGRFTISRDNSKNTLYLQMNSLRAEDTAVYYCARHNYGSFAYWGQGTTVTVSS VL: EIVLTQSPATLSLSPGERATLSCQASQSISNHLHWYQQRPGQAPRLLIRYRSQSISGIPARFSGSGSGTDFTLTISSLEPEDFAVYYCQQSGSWPHTFGGGTKVEIK , give its measured fold enhanced binding over LM609 grafted antibody value.
> 3 fold

Annotate the binder LM609 grafted antibody variant T92 (Fab, V domains shown, Fab) VH: QVQLVESGGGVVQPGRSLRLSCAASGFTFSSYDMSWVRQAPGKGLEWVAKVSSGGGSTYYLDTVQGRFTISRDNSKNTLYLQMNSLRAEDTAVYYCARHNYGSFAYWGQGTTVTVSS VL: EIVLTQSPATLSLSPGERATLSCQASQSISNHLHWYQQRPGQAPRLLIRYRSQSISGIPARFSGSGSGTDFTLTISSLEPEDFAVYYCQQSTSWPHTFGGGTKVEIK with its measured fold enhanced binding over LM609 grafted antibody.
> 3 fold
